Sourced from paper PMC8074465

Molecular target: rSjTGR-Sec (Schistosoma japonicum, UniProt B5THG7)
Sequence (B5THG7 1-596): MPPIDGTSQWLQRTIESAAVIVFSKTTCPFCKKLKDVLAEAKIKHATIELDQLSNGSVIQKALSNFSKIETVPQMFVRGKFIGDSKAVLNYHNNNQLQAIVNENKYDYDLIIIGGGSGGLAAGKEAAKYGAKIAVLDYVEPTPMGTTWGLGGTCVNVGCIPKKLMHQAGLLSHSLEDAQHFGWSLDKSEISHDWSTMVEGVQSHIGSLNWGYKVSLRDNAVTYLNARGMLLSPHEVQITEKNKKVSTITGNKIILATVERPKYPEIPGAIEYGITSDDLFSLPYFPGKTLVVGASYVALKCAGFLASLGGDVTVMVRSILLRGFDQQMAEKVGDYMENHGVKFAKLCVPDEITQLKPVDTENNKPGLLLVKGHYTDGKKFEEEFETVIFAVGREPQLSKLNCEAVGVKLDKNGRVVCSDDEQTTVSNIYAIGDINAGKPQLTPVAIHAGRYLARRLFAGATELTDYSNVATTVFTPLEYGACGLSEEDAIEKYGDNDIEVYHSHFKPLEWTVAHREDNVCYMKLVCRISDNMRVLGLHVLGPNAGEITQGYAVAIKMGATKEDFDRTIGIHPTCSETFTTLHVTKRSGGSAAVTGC
Test: Inhibition of TrxR activity of rSjTGR-Sec (DTNB reduction, absorbance 412 nm)
Format: biochemical
Settings: IC50 of rSjTGR-Sec, DTNB, pH 7.0, 25 °C, triplicate, >50 μM = flat response within range tested
Description: The rSjTGR-Sec was expressed and harvested as described previously. […] The rSjTGR-Sec was purified by His Mag™ Agarose beads according to manufacturer’s instructions. The concentration of purified rSjTGR-Sec was determined using a Bradford assay kit (Sangon, China), and the protein was identified by sodium dodecyl sulfate polyacrylamide gel electrophoresis (SDS-PAGE) and stored at 4 °C [20]. […]
Reported IC50 values for the following molecules.
Please give a number only; it is taken to be in µM.

                                   molecule   val
0  Cc1ccc(S(=O)(=O)N(Cc2c(-c3cccnc3)no[n+]2[O-])O[Si](C)(C)C(C)(C)C)cc1  0.22

Could you now consider this next molecule?
Tested on rSjTGR-Sec (Schistosoma japonicum, UniProt B5THG7), the item N#Cc1c(-c2ccccc2)no[n+]1[O-] [Furoxan, reference compound] showed IC50 equal to 5.87
